Measured combination Emax by item
System: GI-1 (Glioblastoma)
assay_details: combination Emax (second highest fraction inhibited in the dose matrix, 72 h); higher = more inhibition; extreme values may be limits of the assay
No unit in the answer, please; the number alone is enough.

get_value(item= CC1(C)CCC(CN2CCN(c3ccc(C(=O)NS(=O)(=O)c4ccc(NCC5CCOCC5)c([N+](=O)[O-])c4)c(Oc4cnc5[nH]ccc5c4)c3)CC2)=C(c2ccc(Cl)cc2)C1 [Venetoclax] + COc1cc(Nc2ncc3c(n2)-c2ccc(Cl)cc2C(c2c(F)cccc2OC)=NC3)ccc1C(=O)O [Alisertib] (first compound max 1 µM, 7x7, partner max 10 µM) , readout=combination Emax) returns 0.506

Lab note: measured combination Emax of CN(CCO)CC[C@H](CSc1ccccc1)Nc1ccc(S(=O)(=O)NC(=O)c2ccc(N3CCC([C@@H](O)c4ccccc4-c4ccc(Cl)cc4)CC3)cc2)cc1S(=O)(=O)C(F)(F)F [AZD4320] + Nc1ccn([C@@H]2O[C@H](CO)[C@@H](O)C2(F)F)c(=O)n1 [Gemcitabine] (first compound max 1 µM, 7x7, partner max 0.3 µM) was 0.936

Continuing:
Record NC1(C(=O)N[C@@H](CCO)c2ccc(Cl)cc2)CCN(c2ncnc3[nH]ccc23)CC1 [Capivasertib] + CC(C)n1c(=O)n(C)c2cnc3cc(F)c(-c4ccc(OCCCN5CCCCC5)nc4)cc3c21 [AZD1390] (first compound max 10 µM, 7x7, partner max 0.3 µM) . Reported combination Emax: 0.658

====

System: BV-173 (Chronic Myelogenous Leukemia)
assay_details: combination Emax (second highest fraction inhibited in the dose matrix, 72 h); higher = more inhibition; extreme values may be limits of the assay
combination Emax overview
Give your answer as a number; write no unit.

So for Cc1c2c(nn1C)CSCc1cc(n(C)n1)CSc1cc(c3ccccc3c1)OCCCc1c(C(=O)O)n(C)c3c-2c(Cl)ccc13 [AZD5991] + CCN(CCO)CCCOc1ccc2c(Nc3cc(CC(=O)Nc4cccc(F)c4)[nH]n3)ncnc2c1 [AZD2811] (first compound max 1 µM, 7x7, partner max 1 µM) , the logged combination Emax turned out to be 0.95

====

Below, each of the molecules is paired with its reported combination Emax value.
Test system: EW-3 (Ewing's Sarcoma)
assay_details: combination Emax (second highest fraction inhibited in the dose matrix, 72 h); higher = more inhibition; extreme values may be limits of the assay
Just the number, please, no unit after it.

Just so you know, measured combination Emax for CC1(C)CCC(CN2CCN(c3ccc(C(=O)NS(=O)(=O)c4ccc(NCC5CCOCC5)c([N+](=O)[O-])c4)c(Oc4cnc5[nH]ccc5c4)c3)CC2)=C(c2ccc(Cl)cc2)C1 [Venetoclax] + CN(C)CCCOc1ccc(-c2ccc3ncc4c(c3c2)n(C2CCOCC2)c(=O)n4C)cn1 [AZD0156] (first compound max 1 µM, 7x7, partner max 1 µM) came out at 0.799

---
Record CC1(C)CCC(CN2CCN(c3ccc(C(=O)NS(=O)(=O)c4ccc(NCC5CCOCC5)c([N+](=O)[O-])c4)c(Oc4cnc5[nH]ccc5c4)c3)CC2)=C(c2ccc(Cl)cc2)C1 [Venetoclax] + Cc1cc2ncnn2cc1Nc1ncc2c(n1)n(C1CCOCC1)c(=O)n2C [AZD7648] (first compound max 1 µM, 7x7, partner max 10 µM) , field combination Emax: 0.735

The molecule listed as N#Cc1cnc(Nc2cc(NC[C@H]3CNCCO3)c(C(F)(F)F)cn2)cn1 [SRA737] + C=CCn1c(=O)c2cnc(Nc3ccc(N4CCN(C)CC4)cc3)nc2n1-c1cccc(C(C)(C)O)n1 [AZD1775] (first compound max 10 µM, partner max 1 µM) has a reported combination Emax of 0.501

====

System: HC-1 (Other Blood Carcinomas)
assay_details: combination Emax (second highest fraction inhibited in the dose matrix, 72 h); higher = more inhibition; extreme values may be limits of the assay
measured_metric: combination Emax
Give your answer as a number; write no unit.

Record excerpt, results attached:
Bench note, HC-1 (Other Blood Carcinomas): entry CC1(C)CCC(CN2CCN(c3ccc(C(=O)NS(=O)(=O)c4ccc(NCC5CCOCC5)c([N+](=O)[O-])c4)c(Oc4cnc5[nH]ccc5c4)c3)CC2)=C(c2ccc(Cl)cc2)C1 [Venetoclax] + C[C@@H]1COCCN1C2=NC(=NC(=C2)C3(CC3)[S@](=N)(=O)C)C4=C5C=CNC5=NC=C4 [AZD6738] (first compound max 1 µM, 7x7, partner max 10 µM) , its combination Emax = 0.864

Measured combination Emax (HC-1 (Other Blood Carcinomas)), entry C=CCn1c(=O)c2cnc(Nc3ccc(N4CCN(C)CC4)cc3)nc2n1-c1cccc(C(C)(C)O)n1 [AZD1775] + C[C@@H]1COCCN1C2=NC(=NC(=C2)C3(CC3)[S@](=N)(=O)C)C4=C5C=CNC5=NC=C4 [AZD6738] (first compound max 1 µM, partner max 10 µM) : 0.971

// below: combination Emax requested for another compound
Tested system HC-1 (Other Blood Carcinomas); combination Emax recorded for CC1(C)CCC(CN2CCN(c3ccc(C(=O)NS(=O)(=O)c4ccc(NCC5CCOCC5)c([N+](=O)[O-])c4)c(Oc4cnc5[nH]ccc5c4)c3)CC2)=C(c2ccc(Cl)cc2)C1 [Venetoclax] + C1CN(CCC1(C(=O)N[C@@H](CCO)C2=CC=C(C=C2)Cl)N)C3=NC=NC4=C3C=CN4 [Capivasertib] (first compound max 1 µM, 7x7, partner max 3 µM) was 0.452

====

Test system: GOTO (Neuroblastoma)
assay_details: combination Emax (second highest fraction inhibited in the dose matrix, 72 h); higher = more inhibition; extreme values may be limits of the assay
Listed next: entries and their corresponding combination Emax.

Study these solved cases before continuing.
The compound identified as COc1nnc2ccc(N3CCC(c4ccc(OCCN5CCN(C)C(=O)[C@H]5C)cc4)CC3)nn12 [AZD5153] + Cc1c2c(nn1C)CSCc1cc(n(C)n1)CSc1cc(c3ccccc3c1)OCCCc1c(C(=O)O)n(C)c3c-2c(Cl)ccc13 [AZD5991] (first compound max 1 µM, 7x7, partner max 1 µM) registered its combination Emax at 0.919

Value of combination Emax reported for the compound CN(C)CCCOc1ccc(-c2ccc3ncc4c(c3c2)n(C2CCOCC2)c(=O)n4C)cn1 [AZD0156] + CCN(CCO)CCCOc1ccc2c(Nc3cc(CC(=O)Nc4cccc(F)c4)[nH]n3)ncnc2c1 [AZD2811] (first compound max 1 µM, 7x7, partner max 1 µM) is 0.649

Others:
Recorded result, COc1nnc2ccc(N3CCC(c4ccc(OCCN5CCN(C)C(=O)[C@H]5C)cc4)CC3)nn12 [AZD5153] + CN(CC[C@H](CSC1=CC=CC=C1)NC2=C(C=C(C=C2)S(=O)(=O)NC(=O)C3=CC=C(C=C3)N4CCC(CC4)[C@H](C5=CC=CC=C5C6=CC=C(C=C6)Cl)O)S(=O)(=O)C(F)(F)F)CCO [AZD4320] (first compound max 1 µM, 7x7, partner max 1 µM) , combination Emax: 0.858

Note to self: combination Emax recorded for CCc1c2c(nc3ccc(O)cc13)-c1cc3c(c(=O)n1C2)COC(=O)[C@]3(O)CC [SN-38] + O=C(c1cc(Cc2n[nH]c(=O)c3ccccc23)ccc1F)N1CCN(C(=O)C2CC2)CC1 [Olaparib] (first compound max 0.3 µM, 7x7, partner max 10 µM) was 0.879

The recorded combination Emax for entry CC(=O)Nc1cccc(-n2c(=O)n(C3CC3)c(=O)c3c(Nc4ccc(I)cc4F)n(C)c(=O)c(C)c32)c1 [Trametinib] + Cc1nc(-c2cn3c(n2)-c2ccc(-c4cnn(C(C)(C)C(N)=O)c4)cc2OCC3)n(C(C)C)n1 [Taselisib] (first compound max 1 µM, 7x7, partner max 10 µM) equals 0.701

Record CN(CCO)CC[C@H](CSc1ccccc1)Nc1ccc(S(=O)(=O)NC(=O)c2ccc(N3CCC([C@@H](O)c4ccccc4-c4ccc(Cl)cc4)CC3)cc2)cc1S(=O)(=O)C(F)(F)F [AZD4320] + C1CN(CCC1(C(=O)N[C@@H](CCO)C2=CC=C(C=C2)Cl)N)C3=NC=NC4=C3C=CN4 [Capivasertib] (first compound max 1 µM, 7x7, partner max 3 µM) , field combination Emax: 0.378

Documented combination Emax of CCN(CCO)CCCOc1ccc2c(Nc3cc(CC(=O)Nc4cccc(F)c4)[nH]n3)ncnc2c1 [AZD2811] + C[C@@H]1COCCN1C2=NC(=NC(=C2)C3(CC3)[S@](=N)(=O)C)C4=C5C=CNC5=NC=C4 [AZD6738] (first compound max 1 µM, 7x7, partner max 10 µM) : 0.893

====

Test system: EMC-BAC-2 (Non-Small Cell Lung Carcinoma);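 also: after 72 h of two-drug dosing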
assay_details: Bliss excess, mean over the matrix (fraction); higher = more synergy
measured_metric: Bliss excess
No unit in the answer, only the number.

GET /value?item= CN(CCO)CC[C@H](CSc1ccccc1)Nc1ccc(S(=O)(=O)NC(=O)c2ccc(N3CCC([C@@H](O)c4ccccc4-c4ccc(Cl)cc4)CC3)cc2)cc1S(=O)(=O)C(F)(F)F [AZD4320] + C1CN(CCC1(C(=O)N[C@@H](CCO)C2=CC=C(C=C2)Cl)N)C3=NC=NC4=C3C=CN4 [Capivasertib] (first compound max 1 µM, 7x7, partner max 3 µM) &field=Bliss excess returns -0.0761

Next:
The compound listed as COc1nnc2ccc(N3CCC(c4ccc(OCCN5CCN(C)C(=O)[C@H]5C)cc4)CC3)nn12 [AZD5153] + C[C@@H]1COCCN1C2=NC(=NC(=C2)C3(CC3)[S@](=N)(=O)C)C4=C5C=CNC5=NC=C4 [AZD6738] (first compound max 1 µM, 7x7, partner max 10 µM) has a reported Bliss excess of 0.0722

Reported Bliss excess of Cc1cc2ncnn2cc1Nc1ncc2c(n1)n(C1CCOCC1)c(=O)n2C [AZD7648] + C=CCn1c(=O)c2cnc(Nc3ccc(N4CCN(C)CC4)cc3)nc2n1-c1cccc(C(C)(C)O)n1 [AZD1775] (first compound max 10 µM, partner max 1 µM) : 0.0058

The recorded Bliss excess for COc1cc2c(cc1OCCCCCOc1cc3c(cc1OC)C(=O)N1C=C(C)C[C@H]1C=N3)N=C[C@@H]1CC(C)=CN1C2=O [SG3199] + O=C(c1cc(Cc2n[nH]c(=O)c3ccccc23)ccc1F)N1CCN(C(=O)C2CC2)CC1 [Olaparib] (first compound max 0.001 µM, 7x7, partner max 10 µM) is -0.0467

The measurements presented in this section are drawn from the supplement of paper PMC11061612.
